# tested on: Thymidylate kinase (Mycobacterium tuberculosis)
# Sequence (P9WKE1 whole entry): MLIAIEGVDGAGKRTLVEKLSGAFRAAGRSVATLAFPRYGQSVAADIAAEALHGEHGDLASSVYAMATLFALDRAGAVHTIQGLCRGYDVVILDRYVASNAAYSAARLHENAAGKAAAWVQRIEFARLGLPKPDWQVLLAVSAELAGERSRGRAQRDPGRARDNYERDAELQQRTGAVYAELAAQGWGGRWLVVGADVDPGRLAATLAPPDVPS
# experiment: Inhibition of recombinant Mycobacterium tuberculosis TMPK overexpressed in Escherichia coli assessed as inhibition constant by spectrophotometric assay
recorded endpoint: Ki

Measured Ki, Cc1cn(C/C=C\CN2c3cccc4cccc(c34)S2(=O)=O)c(=O)[nH]c1=O : 270 nM

Cited source for all entries: ChEMBL document CHEMBL5360529
